- METHOD NOTES: Compound was evaluated for binding affinity against [3H]- Cl-DPDPE labeled Opioid receptor delta 1 in guinea-pig brain homogenate.
pKi: −log10 of the molar value.
Outcome: condition met for pKi of at least 8; condition not met for anything lower.

Check this compound for pKi at or above 8: O=C(/C=C/c1ccccc1)N[C@@H]1CC[C@@]2(O)[C@H]3Cc4ccc(O)c5c4[C@@]2(CCN3CC2CC2)[C@H]1O5 condition met

Given the entry O=C(/C=C/c1ccc([N+](=O)[O-])cc1)N[C@@H]1CC[C@@]2(O)[C@H]3Cc4ccc(O)c5c4C2(CCN3CC2CC2)[C@H]1O5 , answer whether its pKi meets or surpasses 8. condition met

Dear colleague, could you confirm whether COC(=O)/C=C/C(=O)N[C@@H]1CC[C@@]2(O)[C@H]3Cc4ccc(O)c5c4[C@@]2(CCN3CC2CC2)[C@H]1O5 has pKi at or above 8? condition not met

Would you say O=C(/C=C/c1ccc(Cl)cc1)N[C@@H]1CC[C@@]2(O)[C@H]3Cc4ccc(O)c5c4C2(CCN3CC2CC2)[C@H]1O5 shows pKi at minimum 8? condition met

Origin of measurements: BindingDB's records for doi:10.1016/0960-894X(95)00583-F
